# System: MOLM-13 (FLT3 ITD+/− mutant type)
# test: In vitro growth inhibition (GI50), MOLM-13
# Assay type: cell-based, human
# condition_context: Homo sapiens, MOLM-13; Cell lines of leukemia; read-out: GI 50 MOLM-13 FLT3 (ITD+/−)
metric: GI50

Reference set (3 entries):
molecule	observed_value
CN(C)c1ncnc2ncn(-c3ccc(NC(=O)Nc4cc(C(C)(C)C)on4)cc3)c12 [Compound 59]	1 to 10 nM
CC(C)(C)c1cc(NC(=O)Nc2ccc(-n3cnc4ncccc43)cc2)no1 [Compound 56]	10 to 100 nM
CC(C)(C)c1cc(NC(=O)Nc2ccc(-n3cnc4cc(OCc5cccc(F)c5)ccc43)cc2)[nH]n1 [Compound 93]	1 to 10 nM

--- query ---
I'd like to know its GI50. The molecule in question is CCCCN(CCCC)CCCOc1ccc2c(c1)ncn2-c1ccc(NC(=O)Nc2cc(C(C)(C)C)n[nH]2)cc1 [Compound 82]
0.1 to 1 nM

* * *

# System: MOLM-13 (FLT3 ITD+/− mutant type)
# test: In vitro growth inhibition (GI50), MOLM-13
# Type: cell-based, human
# condition_context: Homo sapiens, MOLM-13; Cell lines of leukemia; read-out: GI 50 MOLM-13 FLT3 (ITD+/−)
Let's look at some molecules and their measured GI50.

Reference set (2 entries):
molecule	observed_value
CC(C)(C)c1cc(N)n(C(=O)Nc2ccc(-n3cnc4cc(OCC5CCCO5)ccc43)cc2)n1 (stereo not shown)	1 to 10 nM
Cc1cc(NC(=O)Nc2ccc(-n3cnc4ccccc43)cc2)n[nH]1	100 to 1000 nM

I'd like to know its GI50. The molecule in question is `CN(C)CCOc1ccc2c(c1)ncn2-c1ccc(NC(=O)Nc2cc(C(C)(C)C)on2)cc1`
0.1 to 1 nM

I'd like to know its GI50. The molecule in question is `CC(C)(C)c1cc(NC(=O)Nc2ccc(-n3cnc4ccccc43)c(F)c2)no1`
100 to 1000 nM

* * *

# Tested on: NCI-H1993 (c-MET amp)
# test: In vitro growth inhibition (GI50), NCI-H1993
# Assay type: cell-based
# condition_context: Homo sapiens, H1993, cMET Amp+
metric: GI50

Reference set (8 entries):
chemical_smiles	study_system	observed_value
CC(C)(C)c1cc(NC(=O)Nc2ccc(-n3cnc4cc(OCCN5CCOCC5)ccc43)cc2)no1	NCI-H1993 (c-MET amp)	> 2500 nM
COCCOc1ccc2c(c1)ncn2-c1ccc(NC(=O)Nc2cc(C(C)(C)C)n[nH]2)cc1	NCI-H1993 (c-MET amp)	> 2500 nM
CC(C)(C)c1cc(NC(=O)Nc2ccc(-n3cnc4ccccc43)cc2)[nH]n1	NCI-H1993 (c-MET amp)	> 2500 nM
CC(C)(C)c1cc(N)n(C(=O)Nc2ccc(-n3cnc4ccccc43)cc2)n1	NCI-H1993 (c-MET amp)	> 2500 nM
CC(C)(C)c1cc(NC(=O)Nc2ccc(-n3cnc4cc(OCCN5CCOCC5)ccc43)cc2)[nH]n1	NCI-H1993 (c-MET amp)	> 2500 nM
COc1ccc2c(c1)ncn2-c1ccc(NC(=O)Nc2cc(C(C)(C)C)n[nH]2)cc1	NCI-H1993 (c-MET amp)	> 2500 nM
CC(C)(C)c1cc(NC(=O)Nc2ccc(-n3cnc4ccc(OCCN5CCOCC5)cc43)cc2)no1	NCI-H1993 (c-MET amp)	> 2500 nM
CC(C)(C)c1cc(NC(=O)Nc2ccc(-n3cnc4cc(OCCO)ccc43)cc2)no1	NCI-H1993 (c-MET amp)	> 2500 nM

I'd like to know its GI50. The molecule in question is `CC(C)(C)c1cc(NC(=O)Nc2ccc(-n3cnc4cc(OCCO)ccc43)cc2)[nH]n1`
> 2500 nM

I'd like to know its GI50. The molecule in question is `CC(C)(C)c1cc(NC(=O)Nc2ccc(-n3cnc4cc(O)ccc43)cc2)no1`
> 2500 nM

* * *

# Tested on: MOLM-13 (FLT3 ITD+/− mutant type)
# test: In vitro growth inhibition (GI50), MOLM-13
# Assay type: cell-based, human
# condition_context: Homo sapiens, MOLM-13; Cell lines of leukemia; read-out: GI 50 MOLM-13 FLT3 (ITD+/−)
metric: GI50

chemical_smiles	GI50
CN1CCN(CCCOc2ccc3c(c2)ncn3-c2ccc(NC(=O)n3nc(C(C)(C)C)cc3N)cc2)CC1	1 to 10 nM
COCCOc1ccc2ncn(-c3ccc(NC(=O)Nc4cc(C(C)(C)C)n[nH]4)cc3)c2c1	0.1 to 1 nM
CCOc1ccc2c(c1)ncn2-c1ccc(NC(=O)Nc2cc(C(C)(C)C)n[nH]2)cc1	0.1 to 1 nM
O=C(Nc1ccc(-n2cnc3ccccc32)cc1)Nc1nncs1	> 1000 nM
CC(C)(C)c1cc(NC(=O)Nc2ccc(-n3cnc4cc(OCCN5CCOCC5)ccc43)cc2)[nH]n1	0.1 to 1 nM

I'd like to know its GI50. The molecule in question is `Cc1csc(NC(=O)Nc2ccc(-n3cnc4ccccc43)cc2)n1`
> 1000 nM

I'd like to know its GI50. The molecule in question is `COc1ccc(-n2nc(C(C)(C)C)cc2NC(=O)Nc2ccc(-n3cnc4ccccc43)cc2)cc1`
10 to 100 nM

I'd like to know its GI50. The molecule in question is `COc1cc2ncn(-c3ccc(NC(=O)Nc4cc(C(C)(C)C)on4)cc3)c2cc1OC`
0.1 to 1 nM

I'd like to know its GI50. The molecule in question is `Cc1ccnc2c1ncn2-c1ccc(NC(=O)Nc2cc(C(C)(C)C)on2)cc1`
10 to 100 nM

I'd like to know its GI50. The molecule in question is `CC(C)(C)c1cc(NC(=O)Nc2ccc(-n3cnc4cc(OC(F)(F)F)ccc43)cc2)[nH]n1`
0.1 to 1 nM

* * *

# Test system: RS4; 11 (FLT3 wild type)
# test: In vitro growth inhibition (GI50), RS4; 11
# Type: cell-based, human
# condition_context: Homo sapiens, RS4-11; Cell lines of leukemia; read-out: GI 50 RS4: 11 FLT3 (WT)
metric: GI50

Reference set (3 entries):
compound	GI50
CN1CCN(CCCOc2ccc3c(c2)ncn3-c2ccc(NC(=O)Nc3cc(C(C)(C)C)n[nH]3)cc2)CC1 [Compound 92]	0.01 to 0.1 µM
O=C(Nc1ccc(-n2cnc3ccccc32)cc1)Nc1ccon1 [Compound 1]	> 1 µM
CC(C)COc1ccc2c(c1)ncn2-c1ccc(NC(=O)Nc2cc(C(C)(C)C)n[nH]2)cc1 [Compound 76]	> 1 µM

I'd like to know its GI50. The compound in question is CC(C)(C)c1cc(NC(=O)Nc2ccc(-n3cnc4cc(C(F)(F)F)cnc43)cc2)no1 [Compound 52]
> 1 µM

I'd like to know its GI50. The compound in question is Cc1cc(N)nn1C(=O)Nc1ccc(-n2cnc3ccccc32)cc1 [Compound 113]
> 1 µM

I'd like to know its GI50. The compound in question is Cc1ccnc2c1ncn2-c1ccc(NC(=O)Nc2cc(C(C)(C)C)on2)cc1 [Compound 55]
> 1 µM

I'd like to know its GI50. The compound in question is Cc1cc(NC(=O)Nc2ccc(-n3cnc4ccccc43)cc2)n[nH]1 [Compound 64]
> 1 µM

I'd like to know its GI50. The compound in question is CN1CCN(CCCOc2ccc3c(c2)ncn3-c2ccc(NC(=O)Nc3cc(C(C)(C)C)on3)cc2)CC1 [Compound 19]
0.01 to 0.1 µM

I'd like to know its GI50. The compound in question is CC(C)(C)c1cc(NC(=O)Nc2ccc(-n3cnc4ncccc43)cc2)no1 [Compound 56]
> 1 µM

I'd like to know its GI50. The compound in question is O=C(Nc1ccc(-n2cnc3ccccc32)cc1)Nc1cc(C(F)(F)F)n[nH]1 [Compound 67]
0.1 to 1 µM

I'd like to know its GI50. The compound in question is CC(C)(C)c1cc(NC(=O)Nc2cnc(-n3cnc4ccccc43)nc2)no1 [Compound 43]
> 1 µM

I'd like to know its GI50. The compound in question is CC(C)(C)c1cc(NC(=O)Nc2ccc(-n3cnc4cc(Br)cnc43)cc2)no1 [Compound 51]
> 1 µM

* * *

Let's look at some compounds and their measured Papp A→B at 2 h.
# test: Bidirectional transmembrane transport and P-gp efflux in Caco-2 monolayer cell model
# Assay type: in vitro ADME
# condition_context: human, Caco-2, pH 7.4; Concentration 10, Inhibitor − (without P-gp inhibitor GF120918); read-out: Papp (A→B)
A number alone suffices; assume ×10⁻⁶ cm/s.

chemical_smiles	Papp A→B at 2 h / ×10⁻⁶ cm/s
COCCOc1ccc2c(c1)ncn2-c1ccc(NC(=O)Nc2cc(C(C)(C)C)n[nH]2)cc1	2.24

I'd like to know its Papp A→B at 2 h. The compound in question is `C[C@H]1O[C@@H](O[C@H]2[C@@H](O)C[C@H](O[C@H]3[C@@H](O)C[C@H](O[C@H]4CC[C@@]5(C)[C@H](CC[C@@H]6[C@@H]5C[C@@H](O)[C@]5(C)[C@@H](C7=CC(=O)OC7)CC[C@]65O)C4)O[C@@H]3C)O[C@@H]2C)C[C@H](O)[C@@H]1O`
0.06
